- Tested on: FXR:RXRa (NR concentration 270 nM, RXRa partner concentration 90 nM)
- assay.explanation: PBM binding z-score (relative to random genomic background probes); higher = stronger binding; sequences stand for … in GC…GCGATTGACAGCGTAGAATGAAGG
Hi there, I'd appreciate the recorded PBM binding z-score for every entry that follows.
The answer should be a number; do not append a unit.

Exam item: Value wanted: PBM binding z-score (FXR:RXRa (NR concentration 270 nM, RXRa partner concentration 90 nM)) of entry ACTAGGTGGTCAGCTGAGGTCACACACAATTCGG
Marked response: 3.12

Exam item: Value wanted: PBM binding z-score (FXR:RXRa (NR concentration 270 nM, RXRa partner concentration 90 nM)) of entry CCTACTGGGCCACGAAAGGTGATTGATTCAGTGA
Marked response: -0.0481

Exam item: Value wanted: PBM binding z-score (FXR:RXRa (NR concentration 270 nM, RXRa partner concentration 90 nM)) of entry TAGCCTAGGTCATGGGCCTGTATACCACGCGAAC
Marked response: 4.51

Exam item: Value wanted: PBM binding z-score (FXR:RXRa (NR concentration 270 nM, RXRa partner concentration 90 nM)) of entry CGTCCGAGGTCAATGCTAGGTCAGTGAAAGCATT
Marked response: 7.31

Exam item: Value wanted: PBM binding z-score (FXR:RXRa (NR concentration 270 nM, RXRa partner concentration 90 nM)) of entry CGTCCAAGGTCAGAGAGGTCAGTGACTGCCGAGT
Marked response: 6.33

Exam item: Value wanted: PBM binding z-score (FXR:RXRa (NR concentration 270 nM, RXRa partner concentration 90 nM)) of entry CCGAGTAGGTTACGAGGGGGCTTTCAGTGCGAAT
Marked response: 1.47

Exam item: Value wanted: PBM binding z-score (FXR:RXRa (NR concentration 270 nM, RXRa partner concentration 90 nM)) of entry ATAGAAAGGTCGAAGGTGAGTATACCCACCCGAA
Marked response: 4.15

Exam item: Value wanted: PBM binding z-score (FXR:RXRa (NR concentration 270 nM, RXRa partner concentration 90 nM)) of entry GCTGCTAGGTAAGGTTGGTCAGCTAACGGGTACG
Marked response: -0.225

Exam item: Value wanted: PBM binding z-score (FXR:RXRa (NR concentration 270 nM, RXRa partner concentration 90 nM)) of entry TCGAGTAGGTTACGGGTGCATTCAGGGATGAAGA
Marked response: 0.435

Exam item: Value wanted: PBM binding z-score (FXR:RXRa (NR concentration 270 nM, RXRa partner concentration 90 nM)) of entry CTATGTAGGTTAAGGGGGGCATTCAGTTTGAAAG
Marked response: 3.22

Exam item: Value wanted: PBM binding z-score (FXR:RXRa (NR concentration 270 nM, RXRa partner concentration 90 nM)) of entry TAGCCTAGGTCATTCAGGGGTCAGTATAGAAAGC
Marked response: 5.8

Exam item: Value wanted: PBM binding z-score (FXR:RXRa (NR concentration 270 nM, RXRa partner concentration 90 nM)) of entry CGAACTAGGTCAACGACAGTGAATCTCCGCACGC
Marked response: 3.59

* * *

- System: PPARg:RXRa IVT, anti-PPARg (NR concentration 270 nM, RXRa partner concentration 90 nM)
- assay.explanation: PBM binding z-score (relative to random genomic background probes); higher = stronger binding; sequences stand for … in GC…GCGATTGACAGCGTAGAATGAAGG
Parameter threshold = 4. Response is criterion met when PBM binding z-score meets or exceeds it, else criterion not met.

Exam item: Please check the record CGTCAACGTTCAACTAAGGTAACGTAAAGCACGC and state if its PBM binding z-score is at or above 4.
Marked response: criterion not met

Exam item: Please check the record CCTACTGGGCCAAAGGTCATAGATTCCAATGCTC and state if its PBM binding z-score is at or above 4.
Marked response: criterion met

Exam item: Please check the record GATACAGGGTCAGCTAGAGGTCAGAGTATGGAAA and state if its PBM binding z-score is at or above 4.
Marked response: criterion not met

Exam item: Please check the record ATATGTAGGTTAGGGTCATTCAAAAAGTAGGGAA and state if its PBM binding z-score is at or above 4.
Marked response: criterion met

Exam item: Please check the record CAAACTAGGTCACCGGAAGGTCATAGTCCGCATG and state if its PBM binding z-score is at or above 4.
Marked response: criterion met

Exam item: Please check the record CAAGCTAGGTCAAGAGGTCAAAGTCCGCTTCCCG and state if its PBM binding z-score is at or above 4.
Marked response: criterion met

Exam item: Please check the record CCTTACAGGTCACGAGGTTATAGCACGACGAGCG and state if its PBM binding z-score is at or above 4.
Marked response: criterion met

Exam item: Please check the record ATAAGTAGGTTAGGGTCATTCAGAAAGTAGGGAA and state if its PBM binding z-score is at or above 4.
Marked response: criterion met

Exam item: Please check the record ACTAGTTGGTCAGCTGGGGTCACACACAATTCGG and state if its PBM binding z-score is at or above 4.
Marked response: criterion not met

Exam item: Please check the record ATCTAAAGGTCGAAGGTGAGTATACCCACCCGAA and state if its PBM binding z-score is at or above 4.
Marked response: criterion not met

Exam item: Please check the record CTATGTAGGTTAAGGGGGTCATTCACTTTGAAAG and state if its PBM binding z-score is at or above 4.
Marked response: criterion met

Exam item: Please check the record ACTAGTTGGTCAGCTGAGGTAACACACAATTCGG and state if its PBM binding z-score is at or above 4.
Marked response: criterion not met

* * *

- Tested on: PXR:RXRa (NR concentration 270 nM, RXRa partner concentration 90 nM)
- assay.explanation: PBM binding z-score (relative to random genomic background probes); higher = stronger binding; sequences stand for … in GC…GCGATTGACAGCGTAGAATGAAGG
assay.metric: PBM binding z-score
The answer should be a number; do not append a unit.

Exam item: // lookup PBM binding z-score for ATATGTAGGTTAGGGTCATTCGGAAAGTAGGGAA
Marked response: 4.53

Exam item: // lookup PBM binding z-score for CCTAGCAGGCCAGGTTCACTCAAGCATTTCGCTT
Marked response: 0.776

Exam item: // lookup PBM binding z-score for GATCCAGGGTCAGCTAGAGGCCAGAGTATGGAAA
Marked response: 3.27

Exam item: // lookup PBM binding z-score for TATTGTAGATCAAAGGTTAAGAAAGCCGAAGCCT
Marked response: 2.16

Exam item: // lookup PBM binding z-score for ATCGAAAGGTCGAGGAGGTGAGTATACACCGTTT
Marked response: 2.86

Exam item: // lookup PBM binding z-score for ACTTACGGGTCAACGGGGTTATAGCACGCGTATA
Marked response: 5.57

Exam item: // lookup PBM binding z-score for TCTCGGAGGACACGAAAGGTCTGAGCTCGACATC
Marked response: -0.0379

Exam item: // lookup PBM binding z-score for CTATGTAGGTTAAGGGGATCATTCAGTTTGAAAG
Marked response: 1.01

Exam item: // lookup PBM binding z-score for TGGAGTAGGTTACGGGGGCATTCAGGGATGAAGA
Marked response: 3.97

Exam item: // lookup PBM binding z-score for CGTCCAAGGTCAATGTTAGGTCAGTGAAAGCATT
Marked response: 4.77

Exam item: // lookup PBM binding z-score for ATATATAGGTTAGGGTCATTCAGAAAGTAGGGAA
Marked response: 4.79

Exam item: // lookup PBM binding z-score for ATATGTCGGTTAGGGTCATTCAGAAAGTAGGGAA
Marked response: 4.88

Exam item: // lookup PBM binding z-score for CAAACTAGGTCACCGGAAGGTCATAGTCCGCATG
Marked response: 5.48

Exam item: // lookup PBM binding z-score for ATATGCAGGTTAGGGTCATTCAGAAAGTAGGGAA
Marked response: 4.28

Exam item: // lookup PBM binding z-score for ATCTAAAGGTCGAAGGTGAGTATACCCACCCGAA
Marked response: 2.87

Exam item: // lookup PBM binding z-score for CTATGTATGTTAAGGGGGTCATTCAGTTTGAAAG
Marked response: 5.85

Exam item: // lookup PBM binding z-score for CGACCTAGGTCAAAGGACAGTGAAAGGCGACGTA
Marked response: 1.42

Exam item: // lookup PBM binding z-score for AATACAGGGTCACTAGGTCAGAGTAGGTACGAAT
Marked response: 4.34

Exam item: // lookup PBM binding z-score for GCTAGTGGGTCAGTAAAAGGTCACACACCGGTCG
Marked response: 5.62

Exam item: // lookup PBM binding z-score for TCGGGTAGGTTACGGGGGCATTCAGGGATGAAGA
Marked response: 4.2

Exam item: // lookup PBM binding z-score for CCCACTGGGGCAAAGGTTACCATACTCAGTACGA
Marked response: 2.41

Exam item: // lookup PBM binding z-score for CGTCCAAGGTCAATGCAAGGTCAGTGAAAGCATT
Marked response: 6.14

Exam item: // lookup PBM binding z-score for ATATGTAGGTTAGGGTCATTCAGAAAGTAGGGAA
Marked response: 4.66

Exam item: // lookup PBM binding z-score for TCGAGTAGGTTACGGGGGCATTCACGGATGAAGA
Marked response: 3.21

Exam item: // lookup PBM binding z-score for CACACTAGGTCAAAGGTCAAAGTCGAGCCAACCA
Marked response: 7.4

Exam item: // lookup PBM binding z-score for CTATGTAGGTTAAGGGGTTCATTCAGTTTGAAAG
Marked response: 5.14

Measured values drawn from the supplement of paper PMC6555819 for this set.
